molecular target: PARP1 L713F-nLuc biosensor (HCT116) (UniProt P09874); experiment: PARP1 L713F-nLuc/akaLuc ratio relative to DMSO control (biosensor stabilization) (fold change); higher = more PARP1 biosensor stabilization (target engagement / stabilizer), active = hit call of the paper; details: stock concentration (mM; final µM = stock mM x 1): 10; 24 h
Sequence (P09874 whole entry L713F, looked up): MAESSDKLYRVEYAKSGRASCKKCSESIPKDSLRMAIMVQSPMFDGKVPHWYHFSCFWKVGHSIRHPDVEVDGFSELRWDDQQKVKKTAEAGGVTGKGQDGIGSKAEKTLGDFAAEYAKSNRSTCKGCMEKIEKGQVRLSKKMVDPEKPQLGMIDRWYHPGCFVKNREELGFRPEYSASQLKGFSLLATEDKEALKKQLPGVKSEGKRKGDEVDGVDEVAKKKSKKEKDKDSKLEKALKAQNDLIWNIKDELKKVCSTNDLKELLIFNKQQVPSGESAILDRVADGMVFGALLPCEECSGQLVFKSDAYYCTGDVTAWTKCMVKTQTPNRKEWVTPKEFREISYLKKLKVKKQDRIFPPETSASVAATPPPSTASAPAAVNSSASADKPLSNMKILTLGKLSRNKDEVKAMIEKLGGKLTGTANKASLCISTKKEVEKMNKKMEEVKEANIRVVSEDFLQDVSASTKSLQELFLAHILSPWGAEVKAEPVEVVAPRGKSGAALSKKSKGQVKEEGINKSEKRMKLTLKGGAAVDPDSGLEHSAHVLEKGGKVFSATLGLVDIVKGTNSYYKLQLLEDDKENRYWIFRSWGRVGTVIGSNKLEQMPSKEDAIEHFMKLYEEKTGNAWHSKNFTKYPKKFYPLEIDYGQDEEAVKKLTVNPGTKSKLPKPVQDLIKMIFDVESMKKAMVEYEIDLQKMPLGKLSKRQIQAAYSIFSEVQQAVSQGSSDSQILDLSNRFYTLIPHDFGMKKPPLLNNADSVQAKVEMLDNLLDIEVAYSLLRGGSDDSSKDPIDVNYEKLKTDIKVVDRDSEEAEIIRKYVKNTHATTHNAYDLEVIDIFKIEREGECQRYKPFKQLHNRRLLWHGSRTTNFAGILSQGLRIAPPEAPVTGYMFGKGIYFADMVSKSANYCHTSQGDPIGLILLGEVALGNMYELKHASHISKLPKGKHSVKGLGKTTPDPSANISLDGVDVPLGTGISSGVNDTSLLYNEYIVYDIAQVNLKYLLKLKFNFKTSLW
Structures can show the parent of a compound that is named as a salt.
Label scheme for PARP1 L713F-nLuc/akaLuc ratio: lower than 1 is not met, 1 and above is met.

Given the entry O=C(O)CNC(=O)C1C(=O)N(C2CCCCC2)C(=O)N(C2CCCCC2)C1=O [Daprodustat] , answer whether its PARP1 L713F-nLuc/akaLuc ratio meets or surpasses 1.
not met

Entry "Cn1cc(C2=C(c3cn(C4CCN(Cc5ccccn5)CC4)c4ccccc34)C(=O)NC2=O)c2ccccc21" : is its PARP1 L713F-nLuc/akaLuc ratio no less than 1?
met

Given the entry "CCN1CCN(C(=O)Cc2ccc(Nc3ncc(F)c(Nc4ccc(C(=O)Nc5ccccc5Cl)cc4)n3)cc2)CC1" , answer whether its PARP1 L713F-nLuc/akaLuc ratio meets or surpasses 1.
met

Determine whether measured PARP1 L713F-nLuc/akaLuc ratio meets or exceeds 1 for COc1ccc2c(c[n+](C)c3c4cc5c(cc4ccc23)OCO5)c1OC [Chelerythrine (chloride)]
not met

Does the reported PARP1 L713F-nLuc/akaLuc ratio for C/C=C(/C)C(=O)O[C@H]1[C@@H]2[C@H](C)C(=O)O[C@@H]2C[C@@H](C)[C@@H]2C=CC(=O)[C@]21C [Brevilin A] fall at or above the 1 mark?
met

Decide: is the reported value of PARP1 L713F-nLuc/akaLuc ratio for Clc1ccc2c(N3CCNCC3)ccnc2c1 [7-Chloro-4-(piperazin-1-yl)quinoline] equal to or greater than 1?
not met

Confirm if PARP1 L713F-nLuc/akaLuc ratio reported for the compound CC(O)(CS(=O)(=O)c1ccc(F)cc1)C(=O)Nc1ccc(C#N)c(C(F)(F)F)c1 (stereo not given) [Bicalutamide] is 1 or above.
not met

API: above_or_equal(metric=PARP1 L713F-nLuc/akaLuc ratio, cutoff=1) for item COCC1(CO)C(=O)C2CCN1CC2 (stereo not given)
met

Is the recorded value of PARP1 L713F-nLuc/akaLuc ratio equal to or greater than 1 for this compound? C[C@@H]1C(=O)O[C@H]2[C@H](O)[C@@]34O[C@@H]5OC(=O)[C@H](O)[C@@]56[C@H](C(C)(C)C)[C@H](O)C(OC3=O)[C@]64[C@@]12O (stereo not given in full) [Ginkgolide C]
not met

Does the reported PARP1 L713F-nLuc/akaLuc ratio for c1ccc([C@@H]2C[C@H]2NC2CCNCC2)cc1 [GSK-LSD1 (dihydrochloride)] fall at or above the 1 mark?
not met

Hi team, for CC[C@@H](C(=O)[C@@H](C)[C@@H](O)[C@H](C)[C@@H]1O[C@@H]([C@@H](CC)C(=O)O)CC[C@@H]1C)[C@H]1O[C@]2(C=C[C@@H](O)[C@]3(CC[C@@](C)([C@H]4CC[C@](O)(CC)[C@H](C)O4)O3)O2)[C@H](C)C[C@@H]1C [Salinomycin (from Streptomyces albus)] , is the recorded PARP1 L713F-nLuc/akaLuc ratio at or above 1?
not met

Please check the record COc1ccc2c(c1)C(c1ccc(Cl)cc1)=N[C@@H](CC(=O)O)c1nnc(C)n1-2 [I-BET762 carboxylic acid] and state if its PARP1 L713F-nLuc/akaLuc ratio is at or above 1.
not met

Given Cn1cc(C2=C(c3cn(C4CCN(Cc5ccccn5)CC4)c4ccccc34)C(=O)NC2=O)c2ccccc21 [Enzastaurin] , state whether its PARP1 L713F-nLuc/akaLuc ratio is at least 1.
not met

Is it the case that "O=C(NO)c1cnc(NC2(c3cccc(F)c3)CCCCC2)nc1" has PARP1 L713F-nLuc/akaLuc ratio reaching or exceeding 1?
not met

Please indicate if the recorded PARP1 L713F-nLuc/akaLuc ratio for C[C@H](CCC(=O)O)C[C@H](C)C[C@H](C)C(=O)/C=C(\O)[C@H](C)C[C@H](C)C/C=C/[C@@H](C)[C@@H](O)[C@@H](C)[C@@H](O)C[C@@H]1CC[C@@](C)([C@H]2CC[C@@](C)([C@@H](C)O)O2)O1 [Ionomycin (calcium)] meets or exceeds 1.
not met

---

target: PARP1 L713F-nLuc biosensor (HCT116); test: PARP1 L713F-nLuc/akaLuc ratio relative to DMSO control (biosensor stabilization) (fold change); higher = more PARP1 biosensor stabilization (target engagement / stabilizer), active = hit call of the paper; conditions: stock concentration (mM; final µM = stock mM x 1): 10; 24 h
Assignment: determine reported PARP1 L713F-nLuc/akaLuc ratio for the given compounds.
Give a plain numeric answer without units written out.

// query PARP1 L713F-nLuc/akaLuc ratio value for entry "C=C1C[C@@H]2[C@H](CC[C@]3(C)C(=O)CC[C@@H]23)[C@@]2(C)C=CC(=O)C=C12"
1

Name the reported PARP1 L713F-nLuc/akaLuc ratio value associated with the compound CCC1(c2ccc(N)cc2)CCC(=O)NC1=O (stereo not drawn) [Aminoglutethimide]
0.862

Need PARP1 L713F-nLuc/akaLuc ratio of "CC(C)=CCCC1=CC(=O)c2c(O)ccc(O)c2C1=O" , thanks.
0.834

---

target: PARP1 L713F-nLuc biosensor (HCT116) (UniProt P09874); assay: PARP1 L713F-nLuc/akaLuc ratio relative to DMSO control (biosensor stabilization) (fold change); higher = more PARP1 biosensor stabilization (target engagement / stabilizer), active = hit call of the paper; details: stock concentration (mM; final µM = stock mM x 1): 10; 24 h
EXPERIMENTAL_ENDPOINT: PARP1 L713F-nLuc/akaLuc ratio
# answer = number (no unit)

PARP1 L713F-nLuc/akaLuc ratio for CN(C)NC(=O)CCC(=O)O [Daminozide] ?
0.786

So what's the measured PARP1 L713F-nLuc/akaLuc ratio for this one? "COc1cc(C)[nH]c(=O)c1CNC(=O)c1c(C)n([C@H](C)C2CCOCC2)c2ccccc12"
0.857

What value of measured PARP1 L713F-nLuc/akaLuc ratio is listed for "O=C(O)CNC(=O)c1c(O)c2ccccc2n(Cc2ccccc2)c1=O" ?
1.76

Would you kindly share the measured PARP1 L713F-nLuc/akaLuc ratio for "CC(=O)O[C@H]1[C@H]2[C@@H](OC(=O)Cc3ccccc3)[C@@H](C)C[C@]2(OC(C)=O)C(=O)/C(C)=C/[C@@H]2[C@H](CC[C@@]13CO3)C2(C)C" ?
0.646

Given "COc1c2c3c4c(c(OC)c(=O)c5c(O)cc(OC)c(c6c(OC)cc(O)c(c1=O)c63)c54)[C@@H](C(C)=O)[C@@](C)(O)C2" , state its recorded PARP1 L713F-nLuc/akaLuc ratio.
0.849

Can you share its PARP1 L713F-nLuc/akaLuc ratio? I mean this molecule: "CCc1c(C(=O)C(N)=O)c2c(OCC(=O)O)cccc2n1Cc1ccccc1"
0.845

Give its PARP1 L713F-nLuc/akaLuc ratio value. Item: "N[C@@H](CNC(=O)C(=O)O)C(=O)O"
1.45

I would be grateful if you could share the reported PARP1 L713F-nLuc/akaLuc ratio for "Cc1cc(O)cc(C)c1C=C1C(=O)N(Cc2ccccc2)C(=O)N(Cc2ccccc2)C1=O" .
1.52
